- ASSAY: Cytotoxicity against HEK293T cells by MTT assay
- Assay type: cell-based, HEK-293T
- CONDITION: human
Response field label takes Condition met when CC50 is strictly below 30 µM and Condition not met in all other cases.

COMPOUND | CLASS
CCOC(=O)c1[nH]c2ccc(Cl)cc2c1C(OC)c1cccc(Cl)c1 (racemic) | Condition met
CCOC(=O)c1[nH]c2ccc(Cl)cc2c1C(SC)c1cccc(Cl)c1 (racemic) | Condition met
CCOC(=O)c1[nH]c2ccc(Cl)cc2c1C(OC)c1cccc(C)c1 (racemic) | Condition met
CCOC(=O)c1[nH]c2ccc(Cl)cc2c1C(OC)c1cccc(Br)c1 (racemic) | Condition met
CCOC(=O)c1[nH]c2ccc(Cl)cc2c1C(SC)c1ccccc1 (racemic) | Condition met
CSC(c1ccccc1)c1c[nH]c2ccc(Cl)cc12 (racemic) | Condition not met
CCOC(=O)c1[nH]c2ccc(Cl)cc2c1N(CC)c1ccccc1 | Condition met
CCOC(=O)c1[nH]c2ccc(Cl)cc2c1C(SC)c1cc(C)cc(C)c1 (racemic) | Condition not met
